The values you see were collected from BindingDB's records for doi:10.1016/j.bmcl.2019.04.027.

Assay: Inhibition of NS5A in HCV genotype 3a S52 infected in human HuH7 transient chimeric replicon cells assessed as reduction in viral replication after 3 days by luciferase reporter gene assay
Readout kind: EC50 (nM)
One number for each entry, in nM.

The examples below pair each entry with its known result.
Q: Consider the molecule shown here: COC(=O)N[C@H](C(=O)N1CCC[C@H]1c1nc2ccc3cc4c(cc3c2[nH]1)OCc1cc(-c2cnc([C@@H]3CCCN3C(=O)[C@H](NC(=O)OC)c3ccccc3)[nH]2)ccc1-4)C(C)C What is its recorded EC50?
A: 0.006

Q: Consider the molecule shown here: COC(=O)N[C@H](C(=O)N1[C@@H](C)CC[C@H]1c1nc2ccc3cc4c(cc3c2[nH]1)OCc1cc(-c2cnc([C@@H]3C[C@H](C)CN3C(=O)[C@H](NC(=O)OC)c3ccccc3)[nH]2)ccc1-4)C(C)C What is its recorded EC50?
A: 0.02

// below: EC50 requested for another molecule
Q: Consider the molecule shown here: COC[C@H]1C[C@@H](c2ncc(-c3ccc4c(c3)COc3cc5c(ccc6nc([C@@H]7C[C@H](COC)CN7C(=O)[C@@H](NC(=O)OC)C(C)C)[nH]c65)cc3-4)[nH]2)N(C(=O)[C@@H](NC(=O)OC)C(C)C)C1 What is its recorded EC50?
A: 0.206
